Cited source: patent US6875760B2

target: human glucagon receptor (Homo sapiens, UniProt P47871); construct: expressed in transfected cells; host or cells: BHK (baby hamster kidney) cells; assay: Glucagon Binding Assay (III); settings: BHK cell membranes, WGA SPA beads, 125I-glucagon; read-out: Glu Bd Assay (III) IC50
Sequence (P47871 26-477): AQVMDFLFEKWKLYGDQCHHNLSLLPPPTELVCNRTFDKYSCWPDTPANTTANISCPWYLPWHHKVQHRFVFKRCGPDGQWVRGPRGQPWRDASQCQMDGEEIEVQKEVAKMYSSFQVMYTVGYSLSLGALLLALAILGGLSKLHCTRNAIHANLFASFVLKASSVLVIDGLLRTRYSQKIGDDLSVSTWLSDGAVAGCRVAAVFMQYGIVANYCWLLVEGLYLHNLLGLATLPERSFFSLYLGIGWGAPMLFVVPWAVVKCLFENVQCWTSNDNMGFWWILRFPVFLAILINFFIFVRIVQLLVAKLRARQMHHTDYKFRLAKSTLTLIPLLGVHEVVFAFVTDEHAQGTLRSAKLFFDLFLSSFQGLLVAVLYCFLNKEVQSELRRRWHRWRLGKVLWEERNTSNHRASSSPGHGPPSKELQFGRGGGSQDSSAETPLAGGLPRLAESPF
pIC50: −log10 of the molar value.
observable: pIC50

Sample records with pIC50:
compound	endpoint-value
CCCCN1C(=O)c2ccc(NC(=O)N(Cc3ccc(C(=O)NCCC(=O)O)cc3)c3ccc(C4CCCCC4)cc3)cc2C1=O	7.74
CCC(C)c1ccc(N(Cc2ccc(C(=O)Nc3nn[nH]n3)cc2)C(=O)Nc2cccc(S(C)(=O)=O)c2)cc1 (stereo not shown)	6.28
CCNC(=O)c1cccc(NC(=O)N(Cc2ccc(C(=O)Nc3nn[nH]n3)cc2)c2ccc(C(C)(C)C)cc2)c1	5.76
CC(C)(C)c1ccc(N(Cc2ccc(C(=O)Nc3nn[nH]n3)cc2)C(=O)Nc2cccc(S(=O)(=O)N3CCCCC3)c2)cc1	6.39
CC(C)(C)C1CCC(N(Cc2ccc(C(=O)NCCC(=O)O)cc2)C(=O)c2ccc(Cc3ccccc3)cc2)CC1 (stereo not shown)	6.17
O=C(O)CCNC(=O)c1ccc(CN(C(=O)Oc2ccc(Br)cc2Br)c2ccc(C3CCCCC3)cc2)cc1	6.14

I: CCCC1CCC(N(Cc2ccc(C(=O)NCCC(=O)O)cc2)C(=O)Nc2ccc(OC(F)(F)F)cc2)CC1 (stereo not shown)
II: O=C(O)CCNC(=O)c1ccc(CN(C(=O)Nc2ccc3c(c2)C(=O)N(CC2CC2)C3=O)c2ccc(C3=CCCCC3)cc2)cc1
Kindly identify the item with the lower pIC50 figure among these two: I and II // respond with label for picked entry I
(I: 6.75, II: 8.15)

1: O=C(Nc1nn[nH]n1)c1ccc(CN(C(=O)Cc2ccc3ccccc3c2)c2ccc(C3CCCCC3)cc2)cc1
2: CCCCN1C(=O)c2ccc(NC(=O)N(Cc3ccc(C(=O)Nc4nn[nH]n4)cc3)C3CCC(C(C)(C)C)CC3)cc2C1=O (stereo not shown)
Compare reported pIC50 values for 1 and 2 . Which is lower? Write the label of whichever entry you select. 1

1: CS(=O)(=O)c1cccc(NC(=O)N(Cc2ccc(C(=O)Nc3nn[nH]n3)cc2)c2ccc(C3=CCCCC3)cc2)c1
2: O=C(O)CCNC(=O)c1ccc(CN(CC(c2ccccc2)c2ccccc2)C(=O)Cc2cccc(OC(F)(F)F)c2)cc1
3: O=C(O)CCNC(=O)c1ccc(CN(Cc2ccccc2Cl)C(=O)Nc2ccc(OC(F)(F)F)cc2)cc1
4: CCCC1(CCC)CCC(N(Cc2ccc(C(=O)NCCC(=O)O)cc2)C(=O)Nc2ccc(OC(F)(F)F)cc2)CC1
5: CC(C)(C)c1ccc(N(Cc2ccc(C(=O)Nc3nn[nH]n3)cc2)C(=O)Nc2cccc(Cl)c2)cc1
Write the entries in order, lowest recorded pIC50 first. To answer, write out the labels according to the requested order. 3, 2, 5, 4, 1

A: CCc1ccc(NC(=O)N(CCc2ccc(Cl)c(Cl)c2)Cc2ccc(C(=O)NCCC(=O)O)cc2)cc1
B: O=C(O)CCNC(=O)c1ccc(CN(C(=O)Nc2cc(C(F)(F)F)cc(C(F)(F)F)c2)C2CCC3(CCCCC3)CC2)cc1
C: CC(C)(C)c1ccc(N(Cc2ccc(C(=O)Nc3nn[nH]n3)cc2)C(=O)Nc2cc(C(F)(F)F)cc(C(F)(F)F)c2)cc1
Arrange items by their pIC50 values in increasing order. Would you mind listing the labels in the order asked for? A, B, C

1: O=C(O)CCNC(=O)c1ccc(CN(C(=O)c2cc3cc(Cl)ccc3o2)c2ccc(C3CCCCC3)cc2)cc1
2: CCCCC(CC)CN(Cc1ccc(C(=O)NCCC(=O)O)cc1)C(=O)Nc1cccc(C(=O)OCC)c1 (stereo not shown)
Hello, I am sorting some records. Could you say if 1 or 2 has the smaller pIC50 value? Output the label that corresponds to your choice. 2
(2: 6.09, 1: 6.43)

P: CS(=O)(=O)c1cccc(NC(=O)N(Cc2ccc(C(=O)NCCC(=O)O)cc2)c2ccc(C3CCCCC3)cc2)c1
Q: CCS(=O)(=O)c1cccc(NC(=O)N(Cc2ccc(C(=O)Nc3nn[nH]n3)cc2)c2ccc(C3CCCCC3)cc2)c1
R: O=C(Nc1nn[nH]n1)c1ccc(CN(C(=O)c2cccc(Cl)c2)c2ccc(C3=CCCCC3)cc2)cc1
Thanks in advance: please rank these 3 entries by pIC50, highest to lowest. Thanks in advance for listing the labels in the requested order. Q, R, P

I: O=C(Nc1nn[nH]n1)c1ccc(CN(C(=O)Nc2cc(Cl)sc2Cl)c2ccc(C3CCCCC3)cc2)cc1
II: CC(C)(C)C1CCC(N(Cc2ccc(C(=O)Nc3nn[nH]n3)cc2)C(=O)c2cc3cc(OC(F)(F)F)ccc3[nH]2)CC1 (stereo not shown)
III: O=C(Nc1nn[nH]n1)c1ccc(CN(C(=O)Nc2ccc(SC(F)(F)F)cc2)c2ccc(C3CCCCC3)cc2)cc1
Ascending sort, pIC50. // format: requested-order list of labels I, II, III
